Hello, the source for this data is PubChem BioAssay AID1963869, in case you need it.

System: KRAS patient-derived spheroids with HUVEC/MSC, viability;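 also: spheroids exposed to agents for 7 days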
Assay: Anticancer human tumor 323965-272-R-J2-PDC patient-derived pancreatic carcinoma cell line growth inhibition [KRAS2]
Settings: second compound 0.316 µM; first compound 0.0316 µM; hits give low values
viability, T/C less than 60% is Satisfied; viability, T/C greater than or equal to 60% is Not satisfied.

Take a look at these entries with their results.
1. Cn1ncnc1[C@H]1c2n[nH]c(=O)c3cc(F)cc(c23)N[C@@H]1c1ccc(F)cc1 + CC1OCC2(CCN(c3cnc(Sc4ccnc(N)c4Cl)c(N)n3)CC2)C1N
Satisfied
2. CCN1CCN(Cc2ccc(Nc3ncc(F)c(-c4cc(F)c5nc(C)n(C(C)C)c5c4)n3)nc2)CC1 + CNCc1ccccc1-c1csc(C(C)Nc2nc(C)nc3cc(OC)c(OC)cc23)c1
Not satisfied
3. Cn1nccc1Nc1nccc(-c2cc3c(s2)C(C)(C)N(CCN2CCOCC2)C3=O)n1 + C=CC(=O)N1CCN(c2nc(OCC3CCCN3C)nc3c2CCN(c2cccc4cccc(C)c24)C3)CC1CC#N
Satisfied

Does the reported viability, T/C of CC(C)n1nc(-c2ccc3oc(N)nc3c2)c2c(N)ncnc21 + C=CC(=O)N1CCN(c2nc(OCC3CCCN3C)nc3c2CCN(c2cccc4cccc(C)c24)C3)CC1CC#N stay below 60%?
Satisfied
